Recorded values, source paper PMC9482650.

- TEST_TARGET: DLG4_3, P78352
- Sequence (P78352 306-403): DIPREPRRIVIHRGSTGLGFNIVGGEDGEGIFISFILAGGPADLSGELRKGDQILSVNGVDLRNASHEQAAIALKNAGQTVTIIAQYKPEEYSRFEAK
- PROTOCOL_NOTES: holdup assay
- Set-up: key: below the threshold = too weak to quantify, mostly under pKd 3.1 to 4
- ASSAY_SETUP: plain residues with an end cap or a label only (N-terminal biotin on a linker: ado-ado)

{"BINDER": "DDASLPVSDV [PLEKHA1, Q9HB21]", "pKd": "below the threshold"}
{"BINDER": "TISFTQTSQF [SLC1A1, P43005]", "pKd": "below the threshold"}
{"BINDER": "SVTSERETNI [SLC16A7, O60669]", "pKd": "below the threshold"}
{"BINDER": "RDPPAEWTRV [PTPN18, Q99952]", "pKd": "below the threshold"}
{"BINDER": "RFQQRMQTHV [KIRREL1, Q96J84]", "pKd": 4.4}
{"BINDER": "SFISKKEWYV [NECTIN1, Q15223]", "pKd": "below the threshold"}
{"BINDER": "EKCGKEFSEF [PRKACA, P17612]", "pKd": "below the threshold"}
{"BINDER": "KRPEMTSSSV [MUC3A, MUC3B, Q02505;Q9H195]", "pKd": 1.91}
